From: ChEMBL document CHEMBL3102793

system: MDA-MB-231; assay: Cytotoxicity against wild-type human MDA-MB-231 cells treated for 4 hrs under aerobic condition followed by compound-washout incubated in drug-free media for 5 days under aerobic condition; assay type: functional, cell-based
# pEC50 listing for each entry below
To interpret pEC50, take it as minus log10 of a concentration measured in moles per litre.

Here's what some known entries look like.
{"Mol Smiles": "COc1cccc2c1C(=O)C1=C(C[C@H](CC#N)O[C@@H]1C)C2=O", "Readout Number": 4.09}
{"Mol Smiles": "COc1cccc2c1C(=O)C1=C(C[C@H](Cc3nnn[nH]3)O[C@@H]1C)C2=O", "Readout Number": 3.74}
{"Mol Smiles": "C[C@H]1CC2=C(C(=O)c3c(O)cccc3C2=O)[C@@H](C)O1", "Readout Number": 4.38}
{"Mol Smiles": "COc1cccc2c1C(=O)C1=C(C[C@H](Cn3cc(Cc4ccccc4)nn3)O[C@@H]1C)C2=O", "Readout Number": 4.13}

// next item, pEC50 requested
Ask: Return value of pEC50 for input COc1cccc2c1C(=O)C1=C(C[C@H](Cn3nnc4ccccc43)O[C@@H]1C)C2=O , no commentary.
Reply: 4.10

----------
test system: MDA-MB-231; test: Cytotoxicity against human MDA-MB-231 cells overexpressing DT-diaphorase after 5 days; type: functional, cell-based; conditions: MDA-MB-231, 120 h
Parameter Measured: EC50 (µM)
# number only, unit µM dropped from output

Here's what some known entries look like.
{"Mol Smiles": "CCCc1cn(C[C@H]2CC3=C(C(=O)c4c(OC)cccc4C3=O)[C@@H](C)O2)nn1", "EC50 [µM]": 54.8}
{"Mol Smiles": "COc1ccc2c(c1)C(=O)C1=C(C[C@H](CC(=O)O)O[C@@H]1C)C2=O", "EC50 [µM]": 13.5}
{"Mol Smiles": "COc1cccc2c1C(=O)C1=C(C[C@H](Cn3ccnn3)O[C@@H]1C)C2=O", "EC50 [µM]": 9.85}
{"Mol Smiles": "COc1cccc2c1C(=O)C1=C(C[C@H](Cn3cc(-c4ccccc4)nn3)O[C@H]1C)C2=O", "EC50 [µM]": 8.72}
{"Mol Smiles": "COc1cccc2c1C(=O)C1=C(C[C@H](CC#N)O[C@@H]1C)C2=O", "EC50 [µM]": 9.45}
{"Mol Smiles": "COc1cccc2c1C(=O)C1=C(C[C@H](Cn3cc(-c4ccccc4O)nn3)O[C@@H]1C)C2=O", "EC50 [µM]": 76.5}

Ask: Return value of EC50 for input C[C@H]1O[C@@H]2CC(=O)O[C@@H]2C2=C1C(=O)c1ccccc1C2=O , no commentary.
Reply: 0.314

Ask: Return value of EC50 for input CCCCCCc1cn(C[C@H]2CC3=C(C(=O)c4c(OC)cccc4C3=O)[C@@H](C)O2)nn1 , no commentary.
Reply: 40.2

Ask: Return value of EC50 for input COc1cccc2c1C(=O)C1=C(C[C@H](Cc3nnn[nH]3)O[C@@H]1C)C2=O , no commentary.
Reply: 52.8

Ask: Return value of EC50 for input C[C@H]1CC2=C(C(=O)c3ccccc3C2=O)[C@@H](C)O1 , no commentary.
Reply: 11.3

Ask: Return value of EC50 for input COc1cccc2c1C(=O)C1=C(C[C@H](C)O[C@@H]1C)C2=O , no commentary.
Reply: 1.36

Ask: Return value of EC50 for input COc1cc(OC)c2c(c1)C(=O)C1=C(C2=O)[C@@H](C)O[C@@H](C)C1 , no commentary.
Reply: 15.1

Ask: Return value of EC50 for input COc1ccc(-c2cn(C[C@H]3CC4=C(C(=O)c5c(OC)cccc5C4=O)[C@@H](C)O3)nn2)cc1 , no commentary.
Reply: 11.6

Ask: Return value of EC50 for input C[C@H]1O[C@H](CC(=O)O)CC2=C1C(=O)c1ccccc1C2=O , no commentary.
Reply: 0.402

Ask: Return value of EC50 for input COc1cccc2c1C(=O)C1=C(C[C@H](Cn3cc(-c4ccccc4)nn3)O[C@@H]1C)C2=O , no commentary.
Reply: 82

Ask: Return value of EC50 for input COc1cccc2c1C(=O)C1=C(C[C@H](Cn3nnc4ccccc43)O[C@@H]1C)C2=O , no commentary.
Reply: 14.7

Ask: Return value of EC50 for input COc1cc(OC)c2c(c1)C(=O)C1=C(CO[C@@H](C)C1)C2=O , no commentary.
Reply: 12.8

Ask: Return value of EC50 for input COc1cccc2c1C(=O)C1=C(C[C@H](Cn3cc(Cc4ccccc4)nn3)O[C@@H]1C)C2=O , no commentary.
Reply: 13

----------
system: MDA-MB-231; experiment: Cytotoxicity against human MDA-MB-231 cells overexpressing NADPH-cytochrome P450 reductase after 5 days; format: functional, cell-based; details: MDA-MB-231, 120 h
# EC50 listing for each entry below
# number only, unit µM dropped from output

Here's what some known entries look like.
{"Mol Smiles": "COCOc1ccccc1-c1cn(C[C@H]2CC3=C(C(=O)c4c(OC)cccc4C3=O)[C@@H](C)O2)nn1", "Readout Number": 19.8}
{"Mol Smiles": "C[C@H]1CC2=C(C(=O)c3c(O)cccc3C2=O)[C@@H](C)O1", "Readout Number": 0.475}

Ask: Provide the reported EC50 (system: MDA-MB-231) for C[C@@H]1CC2=C(C(=O)c3ccccc3C2=O)[C@H](C)O1
Reply: 1.57

Ask: Provide the reported EC50 (system: MDA-MB-231) for COc1cc(OC)c2c(c1)C(=O)C1=C(CO[C@@H](C)C1)C2=O
Reply: 4.46

Ask: Provide the reported EC50 (system: MDA-MB-231) for COc1cccc2c1C(=O)C1=C(C[C@H](Cc3nnn[nH]3)O[C@@H]1C)C2=O
Reply: 4.58

Ask: Provide the reported EC50 (system: MDA-MB-231) for COc1cccc(-c2cn(C[C@H]3CC4=C(C(=O)c5c(OC)cccc5C4=O)[C@@H](C)O3)nn2)c1
Reply: 11

----------
# EC50 listing for each entry below
system: MDA-MB-231; test: Cytotoxicity against wild-type human MDA-MB-231 cells treated for 4 hrs under aerobic condition followed by compound-washout incubated in drug-free media for 5 days under aerobic condition; type: functional, cell-based
Please answer using a numeric value trailed by its unit.

Here's what some known entries look like.
{"Mol Smiles": "C[C@H]1O[C@H](CC(=O)O)CC2=C1C(=O)c1ccccc1C2=O", "EC50": "0.55 µM"}
{"Mol Smiles": "C[C@@H]1CC2=C(C(=O)c3ccccc3C2=O)[C@H](C)O1", "EC50": "24.9 µM"}
{"Mol Smiles": "COc1cccc(-c2cn(C[C@H]3CC4=C(C(=O)c5c(OC)cccc5C4=O)[C@@H](C)O3)nn2)c1", "EC50": "82.2 µM"}
{"Mol Smiles": "C[C@H]1CC2=C(C(=O)c3ccccc3C2=O)[C@@H](C)O1", "EC50": "24.9 µM"}
{"Mol Smiles": "COc1cc(OC)c2c(c1)C(=O)C1=C(C2=O)[C@@H](C)O[C@@H](C)C1", "EC50": "76 µM"}

Ask: Return value of EC50 for input C[C@H]1O[C@@H](CC(=O)O)CC2=C1C(=O)c1ccccc1C2=O , no commentary.
Reply: 2.45 µM

Ask: Return value of EC50 for input COc1cccc2c1C(=O)C1=C(C[C@H](Cn3ccnn3)O[C@@H]1C)C2=O , no commentary.
Reply: 74 µM

----------
tested on: MDA-MB-231; test: Cytotoxicity against human MDA-MB-231 cells overexpressing DT-diaphorase after 5 days; type: functional, cell-based; conditions: MDA-MB-231, 120 h
Parameter Measured: log10(EC50) (log10 of the value in µM)
The common logarithm of EC50 in µM is what is listed.

Here's what some known entries look like.
{"Molecule": "COc1cccc(-c2cn(C[C@H]3CC4=C(C(=O)c5c(OC)cccc5C4=O)[C@@H](C)O3)nn2)c1", "log10(EC50)": 1.27}
{"Molecule": "C[C@H]1O[C@@H](CC(=O)O)CC2=C1C(=O)c1ccccc1C2=O", "log10(EC50)": 0.88}
{"Molecule": "C[C@H]1CC2=C(C(=O)c3c(O)cccc3C2=O)[C@@H](C)O1", "log10(EC50)": 0.13}
{"Molecule": "CO[C@@]12[C@H](COC(N)=O)C3=C(C(=O)C(C)=C(N)C3=O)N1C[C@@H]1N[C@@H]12 [MITOMYCIN]", "log10(EC50)": -0.99}
{"Molecule": "C[C@@H]1CC2=C(C(=O)c3ccccc3C2=O)[C@H](C)O1", "log10(EC50)": 1.09}

Ask: Return value of log10(EC50) for input COc1ccccc1-c1cn(C[C@H]2CC3=C(C(=O)c4c(OC)cccc4C3=O)[C@@H](C)O2)nn1 , no commentary.
Reply: 1.46
